The measured values listed here are drawn from paper PMC5358978.

Molecular target: T1, human CRM1 (HsCRM1), wild type (human, UniProt O14980 1-1071)
T1 construct: human CRM1 / Exportin-1 (XPO1); Always used together with RanGTP (ScRanGTP in the pull-downs); also called Exportin-1; XPO1
T1 sequence (O14980 whole entry): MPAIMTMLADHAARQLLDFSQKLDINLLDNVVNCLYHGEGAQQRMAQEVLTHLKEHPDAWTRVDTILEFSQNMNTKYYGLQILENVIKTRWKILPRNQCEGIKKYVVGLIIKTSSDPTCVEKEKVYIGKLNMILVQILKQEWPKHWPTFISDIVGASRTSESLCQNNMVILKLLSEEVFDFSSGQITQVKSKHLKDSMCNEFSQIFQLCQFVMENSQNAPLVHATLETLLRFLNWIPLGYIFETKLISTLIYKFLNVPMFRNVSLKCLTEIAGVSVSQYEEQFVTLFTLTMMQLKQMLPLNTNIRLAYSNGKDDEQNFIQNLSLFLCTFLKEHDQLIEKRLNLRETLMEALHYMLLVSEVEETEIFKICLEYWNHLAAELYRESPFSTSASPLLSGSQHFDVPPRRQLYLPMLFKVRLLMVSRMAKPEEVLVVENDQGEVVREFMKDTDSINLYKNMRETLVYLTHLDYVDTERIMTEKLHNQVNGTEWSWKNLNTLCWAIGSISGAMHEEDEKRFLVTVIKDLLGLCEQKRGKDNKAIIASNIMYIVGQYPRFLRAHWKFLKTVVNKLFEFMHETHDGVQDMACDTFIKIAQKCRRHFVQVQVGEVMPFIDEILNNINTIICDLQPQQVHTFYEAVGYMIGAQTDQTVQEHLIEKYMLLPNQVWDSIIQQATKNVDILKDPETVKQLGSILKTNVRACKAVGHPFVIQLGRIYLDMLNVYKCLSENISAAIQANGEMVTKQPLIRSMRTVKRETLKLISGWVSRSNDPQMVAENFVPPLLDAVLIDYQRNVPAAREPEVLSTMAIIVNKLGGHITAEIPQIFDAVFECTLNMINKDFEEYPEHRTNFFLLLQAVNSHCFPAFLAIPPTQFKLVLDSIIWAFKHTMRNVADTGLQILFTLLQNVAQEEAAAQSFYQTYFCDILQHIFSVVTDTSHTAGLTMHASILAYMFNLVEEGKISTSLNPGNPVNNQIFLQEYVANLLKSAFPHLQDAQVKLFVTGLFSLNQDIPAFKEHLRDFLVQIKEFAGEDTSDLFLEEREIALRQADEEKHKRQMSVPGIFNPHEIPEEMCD
Assay: differential bleaching; competition titration of MBP-NES to FITC-PKI NES and CRM1 with excess RanGTP; triplicate; fitted with a set of direct titrations
Conditions: both partners purified
quantity: Kd (µM)
// units = µM; emit number, no label

SVPEVEALLARLRAL (mouse diaphanous homolog 3 (mDia2), residues 1179-1193; also called wild type mDia2^NES; not shown: MBP, N-terminal, kept) [MBP-mDia2 NES (wild type)]; 1.7

From here, focus on the item given below.
Qu. State the recorded Kd for this entry: NSNELALKLAGLDANKT [PKI NES(Φ4A) mutant (MBP fusion)]
Ans. 150
